Measured values drawn from patent US20030162763A1 for this set.

tested on: S. epidermidis R005; assay: Minimum Inhibitory Concentration (MIC), agar dilution; type: cell-based; conditions: Staphylococcus epidermidis, R005; Table 1; Mueller-Hinton agar, 37° C., 20 hours; read-out: Sensitivity test result (MIC), S. epidermidis R005
metric_name: MIC (µg/mL)

P = Nc1cc(SC2=C(C(=O)O)N3C(=O)[C@@H](NC(=O)CSc4c(Cl)cccc4Cl)[C@H]3SC2)nc(O)n1
Q = Nc1ccnc(SC2=C(C(=O)O)N3C(=O)[C@@H](NC(=O)Cc4ccccc4)[C@H]3SC2)n1
R = Nc1cc(SC2=C(C(=O)O)N3C(=O)[C@@H](NC(=O)CSc4cc(Cl)ccc4Cl)[C@H]3SC2)nc(N)n1
Query: Lab note: arrange the 3 molecules above from lowest to highest MIC. Put the labels in the order asked and list them.
Reply: R, P, Q

====

tested on: S. aureus 241; assay: Minimum Inhibitory Concentration (MIC), agar dilution; assay type: cell-based, Staphylococcus aureus; conditions: Staphylococcus aureus, 241; Table 1; Mueller-Hinton agar, 37° C., 20 hours; read-out: Sensitivity test result (MIC), S. aureus 241
metric_name: MIC (µg/mL)

molecule | units_text | MIC
Nc1nc(O)cc(SC2=C(C(=O)O)N3C(=O)[C@@H](NC(=O)CSc4cc(Cl)ccc4Cl)[C@H]3SC2)n1 [Compound I-2] | µg/mL | 4

1 = Nc1cc(SC2=C(C(=O)O)N3C(=O)[C@@H](NC(=O)CSc4cc(Cl)ccc4Cl)[C@H]3SC2)nc(N)n1 [Compound I-1]
2 = Nc1cc(SC2=C(C(=O)O)N3C(=O)[C@@H](NC(=O)CSc4c(Cl)cccc4Cl)[C@H]3SC2)nc(O)n1 [Compound I-3]
Query: Thinking about recorded MIC values, which is higher, 1 or 2 ? Refer to your chosen item by its label in the answer.
Reply: 2
(2: 4 µg/mL, 1: 2 µg/mL)
